# Experimental system: Dickkopf-related protein 1 (Homo sapiens) (UniProt O94907)
# Sequence (O94907 whole entry, looked up): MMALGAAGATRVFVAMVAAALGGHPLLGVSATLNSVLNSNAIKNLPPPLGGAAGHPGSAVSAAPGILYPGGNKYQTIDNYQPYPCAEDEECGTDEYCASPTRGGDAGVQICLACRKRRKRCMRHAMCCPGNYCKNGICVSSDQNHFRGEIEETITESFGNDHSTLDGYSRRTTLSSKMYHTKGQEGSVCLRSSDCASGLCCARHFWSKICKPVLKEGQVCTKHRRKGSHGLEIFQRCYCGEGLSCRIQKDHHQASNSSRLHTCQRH
# Experiment notes: DKK1 binders on small-molecule microarrays, primary screen, biochemical, small-molecule microarray, 635 nm fluorescence scan (AID 1106);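 note: score merges emission near 667 nm with signal to noise over three replicate slides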
# Condition set: DKK1 binding, higher = more signal
Parameter measured: composite z-score
Number only, please.

Here's what some known entries look like.
Molecule	Parameter measured	Quantitative readout
CC=CC(O)C1C=CC2C(=O)N(C)C(=O)C2N1Nc1ccc([N+](=O)[O-])cc1[N+](=O)[O-] (stereo not given)	composite z-score	-0.232
O=C1C2C=CC(C(O)c3cc(C(F)(F)F)cc(C(F)(F)F)c3)N(Nc3ccc([N+](=O)[O-])cc3)C2C(=O)N1c1ccccc1 (stereo not given)	composite z-score	-0.246
Cc1ccc(F)cc1S(=O)(=O)N[C@@H]1CCN(Cc2ccc(Oc3ccccc3)cc2)C1	composite z-score	0.47
C=CCOC(=O)[C@H]1[C@@H]2C(=O)O[C@@H](c3ccccc3)[C@@H](c3ccccc3)N2[C@@H](c2ccc(OCCOC(=O)[C@H]3C[C@H]4C(=O)N[C@@H](CCCC[N+](C)(C)C)C(=O)N4[C@H]3c3cccc(OCCO)c3)cc2)[C@]12C(=O)Nc1ccc(I)cc12	composite z-score	0.763
CC(C)NC(=O)[C@@]1(C)c2ccccc2C(=O)N(C(C)C)[C@H]1c1ccc(CO)cc1	composite z-score	-1.81
COc1ccc(C(O)C2C=CC3C(=O)N(Cc4ccccc4)C(=O)C3N2n2cnnc2)c2ccccc12 (stereo not given)	composite z-score	-1.45

Query block: Entry under review: NCCCCCCNC(=O)[C@@H]1C[C@@H]2C(=O)N3CCC[C@H]3C(=O)N2[C@@H]1c1ccc(O)cc1 . Reported composite z-score?
Result block: 1.02

Query block: Entry under review: COC(=O)C1(Cc2ccccc2)C=C2C(=C(c3ccccc3)C(=O)C2C)CN1 (stereo not given) . Reported composite z-score?
Result block: -0.89

Query block: Entry under review: COC(=O)[C@@]1(Cc2ccccc2)[C@H]2c3cc(C(=O)N4CCCC4)n(Cc4ccsc4Br)c3C[C@H]2CN1C(=O)c1ccccc1 . Reported composite z-score?
Result block: -0.825

* * *

# Experimental system: Torsin-1A-interacting protein 2 (Homo sapiens) (UniProt Q8NFQ8)
# Sequence (Q8NFQ8 whole entry, looked up): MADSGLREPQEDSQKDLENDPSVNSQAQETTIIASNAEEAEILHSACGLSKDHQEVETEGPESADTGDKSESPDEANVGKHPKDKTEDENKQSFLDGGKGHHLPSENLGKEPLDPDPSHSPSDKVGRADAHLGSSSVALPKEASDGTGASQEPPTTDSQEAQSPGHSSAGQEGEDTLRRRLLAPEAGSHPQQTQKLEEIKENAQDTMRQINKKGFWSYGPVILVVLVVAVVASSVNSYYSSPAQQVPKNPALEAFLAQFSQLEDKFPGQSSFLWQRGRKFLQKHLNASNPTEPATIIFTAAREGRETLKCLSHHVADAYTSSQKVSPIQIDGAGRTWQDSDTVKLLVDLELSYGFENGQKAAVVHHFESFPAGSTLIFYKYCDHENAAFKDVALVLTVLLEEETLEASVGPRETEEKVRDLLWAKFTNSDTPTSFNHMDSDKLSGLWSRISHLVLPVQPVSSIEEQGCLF
# Experiment notes: LULL1 binders on small-molecule microarray, primary screen, cell lysate, human LULL1 lysate, 635/667 nm fluorescence (AID 1092);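 note: probe is lysate of COS7 cells overexpressing human LULL1; score merges per-feature 667 nm fluorescence with signal-to-noise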
# Condition set: hLULL1 lysate binding, 635 nm fluorescence, higher = more signal
Answer Not met if composite z-score is under 2, and Met if it is 2 or more.

                                   compound  assigned_label
0  COC(=O)[C@@]1(Cc2ccccc2)[C@H]2c3cc(C(=O)N4CCCC4)n(C[C@H](O)CO)c3C[C@H]2CN1C(=O)c1ccccc1             Met
1  C[C@]1(C(=O)NCCN2CCOCC2)c2ccccc2C(=O)N(Cc2ccc(OC(F)(F)F)cc2)[C@H]1c1ccc(CO)cc1         Not met
2  C[C@]1(C(=O)O)c2ccccc2C(=O)N(Cc2ccccc2)[C@H]1c1ccc(CO)cc1         Not met
3  CCOC(=O)C1=CC[C@@H](c2ccc([N+](=O)[O-])cc2)N(S(=O)(=O)c2ccc(C)cc2)[C@H]1c1ccccc1             Met
4  COCC(=C=CC[C@H](O)c1ccc(OCCO)cc1)C[C@H](O)COCc1ccccc1         Not met
5  O=C1OCCC=C[C@H]2OC34C=CCN(c5ccc(Cl)cc5)C(=O)[C@H]3N(CCCCCO)C(=O)[C@@H]4C12 (stereo partly drawn)             Met

Now look at this entry.
Query block: Hi team, for COC(=O)C1(Cc2ccccc2)C=C2C(=C(c3ccccc3)C(=O)C2C)CN1 (stereo not drawn) , is the recorded composite z-score at or above 2?
Result block: Not met

* * *

Measured z-score values are reported for all entries that follow.
# Experiment notes: basal RPMI8226 viability, no added stimulus, profiling panel, cell-based, calcein-AM fluorescence, 48 h, PK04 Diversity Set (AID 1166);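 note: cells grown under basal conditions without added stimulus; test concentration not given here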
# Condition set: RPMI8226 myeloma viability, higher = more signal
Number only, please.

>>> print(df.to_string())
                                   compound  quantitative_readout
0  CON(C)C(=O)C=C1C[C@@H](c2cccc(Cl)c2)O[C@@H](c2cccc(Cl)c2)O1                 -4.18
1  O=C1OCC=C[C@H]2OC34C=CCN(c5ccc(Cl)cc5)C(=O)[C@H]3N(CCCCCO)C(=O)[C@@H]4[C@@H]12 (stereo partly drawn)                 0.707

Now consider a different compound.
Query block: Entry under review: C=C(/C=C/CNS(=O)(=O)c1ccc(C)cc1)[C@H](O)[C@H]1CCCN1S(=O)(=O)c1ccccc1[N+](=O)[O-] . Reported z-score?
Result block: -0.264

* * *

# Experiment notes: small-molecule microarray binders of probe aLefty2, primary screen, biochemical, biotinylated probe, 635/667 nm fluorescence (AID 1094);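 note: score merges spot fluorescence near 667 nm with spot signal-to-noise ratio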
# Condition set: higher = more signal
Parameter measured: composite z-score
Number only, please.

Query block: Entry under review: COC(=O)[C@@]1(Cc2ccccc2)[C@H]2c3cc(C(=O)N4CCCC4)[nH]c3C[C@H]2CN1C(=O)c1ccccc1 . Reported composite z-score?
Result block: 0.134

Query block: Entry under review: COc1ccc(C(O)C2C=CC3C(=O)N(Cc4ccccc4)C(=O)C3N2n2cnnc2)c2ccccc12 (stereo not drawn) . Reported composite z-score?
Result block: -0.238

Query block: Entry under review: COCCOC(=O)N1C(=O)[C@@]2(c3cc(C#CC4=CCCCC4)ccc31)[C@H](c1ccc(O)cc1)N1[C@H](c3ccccc3)[C@H](c3ccccc3)OC(=O)[C@H]1[C@@H]2C(=O)Nc1nc2ccccc2s1 . Reported composite z-score?
Result block: -0.141

Query block: Entry under review: CCOC(=O)[C@@H]1[C@@H]2C(=O)N(CC)C(=O)[C@@H]2C[C@@H]1Sc1ccccc1 . Reported composite z-score?
Result block: -0.0632

Query block: Entry under review: CCCN1C(=O)[C@]2(Cc3ccccc3)N=C(c3ccc(OCCCO)cc3)O[C@@H]2c2ccccc21 . Reported composite z-score?
Result block: -0.0159

Query block: Entry under review: CC[C@H]1C2=C3C(CC[C@H]4C(OCc5ccc(F)cc5C(F)(F)F)OC[C@](C)([C@@H]34)N(C(=O)OC(C)(C)C)C2)C2COC(=O)OCC21 (stereo partly drawn) . Reported composite z-score?
Result block: 0.375

Query block: Entry under review: COC(=O)[C@]1(CCS(=O)(=O)c2ccccc2)N=C(c2ccc(OCCCO)cc2)O[C@@H]1c1ccccc1CN=[N+]=[N-] . Reported composite z-score?
Result block: 0.0956

Query block: Entry under review: O=C1NC(=O)C2C1C=CC(C(O)c1ccc(Br)cc1)N2Nc1ccccn1 (stereo not drawn) . Reported composite z-score?
Result block: 0.119

Query block: Entry under review: NCCCCCCNC(=O)[C@H]1C[C@H]2C(=O)N[C@@H](Cc3ccccc3)C(=O)N2[C@H]1c1ccc(O)cc1 . Reported composite z-score?
Result block: -0.0824

Query block: Entry under review: Cc1ccc(S[C@]2(C(=O)NCC(F)(F)F)CC(=O)N(Cc3ccccc3)[C@@H]2c2ccc(CO)cc2)cc1 . Reported composite z-score?
Result block: -0.137

Query block: Entry under review: NCCCCCNC(=O)[C@@H]1C[C@@H]2C(=O)N[C@@H](CCCCN)C(=O)N2[C@@H]1c1cccc(OCCO)c1 . Reported composite z-score?
Result block: 0.119

Query block: Entry under review: CO[C@H]1O[C@H](CO)[C@@H](OC(=O)Nc2ccccc2-c2ccccc2)[C@H](OC(=O)Nc2ccc3c(c2)OCO3)[C@@H]1OC(=O)Nc1ccc2c(c1)OCO2 . Reported composite z-score?
Result block: -0.0269

Query block: Entry under review: O=C1OCC=C[C@H]2OC34C=CCN(Cn5nnc6ccccc65)C(=O)[C@H]3N(CCCCCCO)C(=O)[C@@H]4[C@@H]12 (stereo partly drawn) . Reported composite z-score?
Result block: -0.0356

Query block: Entry under review: CN(C)CCCNC(=O)[C@@]1(c2ccc([N+](=O)[O-])cc2)CC(=O)N(CC23CC4CC(CC(C4)C2)C3)[C@@H]1c1ccc(CO)cc1 . Reported composite z-score?
Result block: 0.969

Query block: Entry under review: [N-]=[N+]=Nc1ccccc1C[C@]1(C(=O)NCc2ccccc2)N=C(c2ccc(OCCCO)cc2)O[C@H]1c1ccccc1 . Reported composite z-score?
Result block: 0.206

* * *

# Experiment notes: basal RPMI8226 viability, no added stimulus, profiling panel, cell-based, calcein-AM fluorescence, 48 h, PK04 Diversity Set (AID 1166);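 note: cells grown under basal conditions without added stimulus; test concentration not given here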
# Condition set: RPMI8226 myeloma viability, higher = more signal
Threshold-based label: z-score under -3 gives rule met, z-score not under -3 gives rule not met.

Compound	Assigned label
O=C(CS)NCCCCCCNC(=O)[C@@H]1C[C@@H]2C(=O)N3CCC[C@H]3C(=O)N2[C@@H]1c1cccc(OCCO)c1	rule not met
C=C(C(=O)CC[C@H](OC(=O)c1cccnc1)c1cccc(OCCO)c1)C(C)C	rule not met
COc1cc(CO)cc(I)c1O[C@H]1C=C(C(=O)NCCO)C[C@@H](N(Cc2ccc(F)cc2)C(=O)C2CCCO2)[C@@H]1O (some centres undefined)	rule not met

Query block: Does this compound meet the criterion z-score < -3? CC(C)CN1C(=O)[C@@]2(c3ccc([N+](=O)[O-])cc3)CC(=O)N(CC34CC5CC(CC(C5)C3)C4)[C@@H]2c2ccc(CO)cc21
Result block: rule not met

Query block: Does this compound meet the criterion z-score < -3? Cc1c(NC(=O)/C(C#N)=C/C=C/c2ccc(N(C)C)cc2)c(=O)n(-c2ccccc2)n1C
Result block: rule not met
